# SYSTEM: Abeta 1-40 monomer (UniProt P05067)
# TEST_DETAILS: MPA bead capture, Abeta 1-40 read-out of the CSF sample (noise)
Binary classification by average RLU (40), with 200 RLU as an inclusive lower bound for Criterion met; all other cases are Criterion not met.

- SUBSTANCE: "link-KKKFKF (peptide)"
  SYSTEM: "Abeta 1-40 monomer (UniProt P05067)"
  ASSIGNED_CATEGORY: "Criterion met"
- SUBSTANCE: "AAAKAA (peptide)"
  SYSTEM: "Abeta 1-40 monomer (UniProt P05067)"
  ASSIGNED_CATEGORY: "Criterion not met"
- SUBSTANCE: "AKKKKA (peptide)"
  SYSTEM: "Abeta 1-40 monomer (UniProt P05067)"
  ASSIGNED_CATEGORY: "Criterion not met"
- SUBSTANCE: "KKKFKF-link (peptide)"
  SYSTEM: "Abeta 1-40 monomer (UniProt P05067)"
  ASSIGNED_CATEGORY: "Criterion not met"
- SUBSTANCE: "DFKLNFKF (peptide)"
  SYSTEM: "Abeta 1-40 monomer (UniProt P05067)"
  ASSIGNED_CATEGORY: "Criterion met"
- SUBSTANCE: "AAKKAA (peptide)"
  SYSTEM: "Abeta 1-40 monomer (UniProt P05067)"
  ASSIGNED_CATEGORY: "Criterion not met"
- SUBSTANCE: "AKKKKK (peptide)"
  SYSTEM: "Abeta 1-40 monomer (UniProt P05067)"
  ASSIGNED_CATEGORY: "Criterion not met"
- SUBSTANCE: "AAKKKA (peptide)"
  SYSTEM: "Abeta 1-40 monomer (UniProt P05067)"
  ASSIGNED_CATEGORY: "Criterion not met"
- SUBSTANCE: "ANFFAHSS (peptide)"
  SYSTEM: "Abeta 1-40 monomer (UniProt P05067)"
  ASSIGNED_CATEGORY: "Criterion met"
